Exercise: state measured screen value for each of the variants provided.
B1: KIAA1614 peptide 568-583 (uncharacterized protein KIAA1614), 16-mer library wild type / USP8 rhodanese domain (ubiquitin carboxyl-terminal hydrolase 8, residues 174-317) (parent)
chain 1: GMERVLGGLSSPLRLL
chain 2: KCETKEKGAITAKELYTMMTDKNISLIIMDARRMQDYQDSCILHSLSVPEEAISPGVTASWIEAHLPDDSKDTWKKRGNVEYVVLLDWFSSAKDLQIGTTLRSLKDALFKWESKTVLRNEPLVLEGGYENWLLCYPQYTTNAKV

variants of: B1; test: peptide-phage display deep mutational scan (M13, 16-mer library, displayed with a C-terminal GGGSG linker encoded by the 3' flank) selected against the GST-tagged USP8 rhodanese domain, four rounds; NGS counts summed over selection …; conditions: with USP8 rhodanese domain (ubiquitin carboxyl-terminal hydrolase 8, residues 174-317), 10 µg GST-bait on MaxiSorp, pre-cleared on GST, 2 h at 4 °C, five washes with 0.05% Tween 20 in PBS, not graded, scale: average over two replicas of the peptide's fractional NGS count

// below: answered variants
variant_designation: chain 1 L15G
result: 1.26e-05
//
variant_designation: chain 1 L13S
result: 0.00179
//
variant_designation: chain 1 R14N
result: 5.27e-05
//
variant_designation: chain 1 S11N
result: 0.0195
//
variant_designation: chain 1 G7P
result: 1.55e-05
//
variant_designation: chain 1 G1N
result: 0.0012

Hi! Can you tell me screen value for each of these variants?
1. chain 1 L13T
2. chain 1 L9F
3. chain 1 G7M
4. chain 1 G1A
5. chain 1 R14L
6. chain 1 V5T

Response line:
0.00145
3.79e-05
0.00706
0.0197
0.000793
0.0104
